system: Alternaria alternata; test: Antimicrobial activity against Alternaria alternata ATCC 66868 after 24 hr by broth dilution method; assay type: functional; details: ATCC 66868, 24 h
Quantity name: MIC (µg/mL)
Numbers only here, please. The scale is µg/mL.

As a guide, the following entries are already answered.
1) O=C1Nc2ccc(Cl)cc2/C1=N/N1C(=O)C(Cl)C1c1ccc(F)cc1 (stereo not drawn)    4.68
2) O=C1Nc2ccc(Cl)cc2/C1=N/N1C(=O)C(Cl)C1c1ccco1 (stereo not drawn)    37.5
3) COc1cccc(C2SCC(=O)N2/N=C2\C(=O)Nc3ccc(Cl)cc32)c1 (stereo not drawn)    18.8
4) O=C1Nc2ccc(Cl)cc2/C1=N/N1C(=O)C(Cl)C1c1ccccc1Cl (stereo not drawn)    150
5) CN(C)c1ccc(C2SCC(=O)N2/N=C2\C(=O)Nc3ccc(Cl)cc32)cc1 (stereo not drawn)    4.68

Ask | Request - read-out MIC | tested on Alternaria alternata | compound O=C1Nc2ccc(Cl)cc2/C1=N/N1C(=O)C(Cl)C1c1ccc([N+](=O)[O-])cc1 (stereo not drawn)
Reply | 4.68

Ask | Can you look up MIC on Alternaria alternata for O=C1Nc2ccc(Cl)cc2/C1=N/N1C(=O)CSC1c1ccc(O)cc1 (stereo not drawn) ?
Reply | 9.37

Ask | Hello, I am looking for reported MIC with Alternaria alternata for O=C1Nc2ccc(Cl)cc2/C1=N/N1C(=O)CSC1c1ccc([N+](=O)[O-])cc1 (stereo not drawn) . Could you help?
Reply | 4.68

###

tested on: Alternaria alternata; assay: Antimicrobial activity against Alternaria alternata ATCC 66868 after 24 hr by broth dilution method; type: functional; conditions: ATCC 66868, 24 h
Quantity name: log10 MIC (log10 of the value in µg/mL)
# values: log10(MIC), units µg/mL

Below, each entry is followed by its recorded log10 MIC result.
1) O=C1Nc2ccc(Cl)cc2/C1=N/N1C(=O)C(Cl)C1c1ccccc1O (stereo not given)    2.18
2) O=C1Nc2ccc(Cl)cc2/C1=N/N1C(=O)CSC1c1ccc(Cl)cc1 (stereo not given)    0.67
3) O=C1Nc2ccc(Cl)cc2/C1=N/N1C(=O)C(Cl)C1c1ccccc1 (stereo not given)    1.27

Ask | Item under review: O=C1Nc2ccc(Cl)cc2/C1=N/N1C(=O)C(Cl)C1c1ccc(Cl)cc1 (stereo not given) . Reported log10 MIC?
Reply | 0.97

Ask | Bench note: what log10 MIC did O=C1Nc2ccc(Cl)cc2/C1=N/N1C(=O)C(Cl)C1c1ccc(O)cc1 (stereo not given) show?
Reply | 0.67

###

system: Staphylococcus epidermidis; assay: Antimicrobial activity against Staphylococcus epidermidis ATCC 12228 after 24 hr by broth dilution method; type: functional; conditions: ATCC 12228, 24 h
In this section we review reported MIC values for a set of molecules.

Field: example entries. Status: answers known.
1. O=C1Nc2ccc(Cl)cc2/C1=N/N1C(=O)C(Cl)C1c1ccc(Cl)cc1 (stereo not given)    18.8 µg/mL
2. O=C1Nc2ccc(Cl)cc2/C1=N/N1C(=O)CSC1c1ccco1 (stereo not given)    75 µg/mL
3. O=C1Nc2ccc(Cl)cc2/C1=N/N1C(=O)C(Cl)C1c1ccccc1 (stereo not given)    37.5 µg/mL
4. O=C1Nc2ccc(Cl)cc2/C1=N/N1C(=O)CSC1c1ccc([N+](=O)[O-])cc1 (stereo not given)    18.8 µg/mL
5. O=C1Nc2ccc(Cl)cc2/C1=N/N1C(=O)C(Cl)C1c1ccc(O)cc1 (stereo not given)    9.37 µg/mL

Ask | Would you mind telling me what MIC value was observed for O=C1Nc2ccc(Cl)cc2/C1=N/N1C(=O)C(Cl)C1c1ccc([N+](=O)[O-])cc1 (stereo not given) ?
Reply | 18.8 µg/mL

Ask | Please give the measured MIC for this molecule: CN(C)c1ccc(C2C(Cl)C(=O)N2/N=C2\C(=O)Nc3ccc(Cl)cc32)cc1 (stereo not given)
Reply | 9.37 µg/mL

###

Recorded MIC, one value per entry.
system: Proteus vulgaris; test: Antimicrobial activity against Proteus vulgaris ATCC 13315 after 24 hr by broth dilution method; type: functional; conditions: ATCC 13315, 24 h
Give the value; after it, write the unit.

1) O=C1Nc2ccc(Cl)cc2/C1=N/N1C(=O)C(Cl)C1c1ccccc1Cl (stereo not given)    150 µg/mL
2) COc1ccc(C2C(Cl)C(=O)N2/N=C2\C(=O)Nc3ccc(Cl)cc32)cc1 (stereo not given)    18.8 µg/mL
3) O=C1Nc2ccc(Cl)cc2/C1=N/N1C(=O)CSC1c1ccccc1Cl (stereo not given)    300 µg/mL
4) O=C1Nc2ccc(Cl)cc2/C1=N/N1C(=O)C(Cl)C1c1ccccc1O (stereo not given)    150 µg/mL
5) O=C1Nc2ccc(Cl)cc2/C1=N/N1C(=O)C(Cl)C1c1ccc(O)cc1 (stereo not given)    9.37 µg/mL

Ask | Give its MIC value. Item: O=C1Nc2ccc(Cl)cc2/C1=N/N1C(=O)CSC1c1ccccc1O (stereo not given)
Reply | 150 µg/mL

###

We begin with a simple list: items and their reported MIC.
system: Bacillus pumilus; assay: Antimicrobial activity against Bacillus pumilus ATCC 14884 after 24 hr by broth dilution method; type: functional; settings: ATCC 14884, 24 h
# unit: µg/mL | format: bare number

1) O=C1Nc2ccc(Cl)cc2/C1=N/N1C(=O)C(Cl)C1c1ccccc1O (stereo not drawn)    300

Ask | Quick check: MIC on Bacillus pumilus, item O=C1Nc2ccc(Cl)cc2/C1=N/N1C(=O)CSC1c1ccc(O)cc1 (stereo not drawn) ?
Reply | 9.37

Ask | Lab note: need MIC with Bacillus pumilus for entry O=C1Nc2ccc(Cl)cc2/C1=N/N1C(=O)C(Cl)C1c1ccc(O)cc1 (stereo not drawn) , please look it up.
Reply | 9.37

###

test system: Candida albicans; assay: Antimicrobial activity against Candida albicans ATCC 10231 after 24 hr by broth dilution method; assay type: functional; conditions: ATCC 10231, 24 h
Here, each record is paired with measured MIC data.
Just the number please, in µg/mL, no unit attached.

Example entries and their recorded answers appear below.
1. O=C1Nc2ccc(Cl)cc2/C1=N/N1C(=O)CSC1c1ccccc1Cl (stereo not given)    150
2. O=C1Nc2ccc(Cl)cc2/C1=N/N1C(=O)CSC1c1ccc(Cl)cc1 (stereo not given)    4.68
3. O=C1Nc2ccc(Cl)cc2/C1=N/N1C(=O)CSC1c1ccccc1 (stereo not given)    9.37
4. Clc1ccccc1C(c1ccccc1)(c1ccccc1)n1ccnc1 [CLOTRIMAZOLE]    0.58

Ask | Write down the reported MIC of O=C1Nc2ccc(Cl)cc2/C1=N/N1C(=O)C(Cl)C1c1ccc([N+](=O)[O-])cc1 (stereo not given) , test system: Candida albicans.
Reply | 4.68

###

test system: Aspergillus niger; test: Antimicrobial activity against Aspergillus niger ATCC 9142 after 24 hr by broth dilution method; assay type: functional; conditions: ATCC 9142, 24 h
// reported MIC for each item listed
Entry rule: numbers only, all in µg/mL.

Worked examples, 5 compounds total:
1) Clc1ccccc1C(c1ccccc1)(c1ccccc1)n1ccnc1 [CLOTRIMAZOLE]    2.34
2) O=C1Nc2ccc(Cl)cc2/C1=N/N1C(=O)C(Cl)C1c1ccccc1O (stereo not drawn)    75
3) O=C1Nc2ccc(Cl)cc2/C1=N/N1C(=O)C(Cl)C1c1ccc(Cl)cc1 (stereo not drawn)    4.68
4) COc1cccc(C2SCC(=O)N2/N=C2\C(=O)Nc3ccc(Cl)cc32)c1 (stereo not drawn)    37.5
5) O=C1Nc2ccc(Cl)cc2/C1=N/N1C(=O)CSC1c1ccccc1Cl (stereo not drawn)    75

Ask | I'd like to know its MIC. The compound in question is COc1cccc(C2C(Cl)C(=O)N2/N=C2\C(=O)Nc3ccc(Cl)cc32)c1 (stereo not drawn)
Reply | 37.5

Ask | Look up MIC: O=C1Nc2ccc(Cl)cc2/C1=N/N1C(=O)CSC1c1ccc(Cl)cc1 (stereo not drawn)
Reply | 4.68

Ask | # MIC lookup, item CN(C)c1ccc(C2SCC(=O)N2/N=C2\C(=O)Nc3ccc(Cl)cc32)cc1 (stereo not drawn)
Reply | 4.68

Ask | Report MIC for O=C1Nc2ccc(Cl)cc2/C1=N/N1C(=O)CSC1c1ccc(O)cc1 (stereo not drawn) please.
Reply | 4.68

Ask | I would be grateful if you could share the reported MIC for O=C1Nc2ccc(Cl)cc2/C1=N/N1C(=O)C(Cl)C1c1ccccc1Cl (stereo not drawn) .
Reply | 150

Ask | Bench note: what MIC did COc1ccc(C2C(Cl)C(=O)N2/N=C2\C(=O)Nc3ccc(Cl)cc32)cc1 (stereo not drawn) show?
Reply | 4.68

Ask | Bench note: what MIC did O=C1Nc2ccc(Cl)cc2/C1=N/N1C(=O)C(Cl)C1c1ccccc1 (stereo not drawn) show?
Reply | 18.8

Ask | Query (compound): O=C1Nc2ccc(Cl)cc2/C1=N/N1C(=O)CSC1c1ccccc1 (stereo not drawn) ; field requested: MIC
Reply | 18.8
